Measured values drawn from paper PMC11748689 for this set.

- measured-on: native T. cruzi proteasome (trypsin-like activity, β2) (Trypanosoma cruzi, UniProt V5BCU3)
- assay-explanation: Trypsin-like activity assay (Proteasome-Glo), native T. cruzi proteasome
- Assay type: biochemical
- condition: mean ± SD, N = 3; read-out: pIC50, Trypsin Assay, Native (converted)
Residues, ends and D or L forms follow the SMILES beside them. *: point of attachment. Cbz = O=C(OCc1ccccc1)*
Entries annotated with measured IC50

molecule	IC50
O=C(Nc1ccc(F)c(-c2cn3nc(-c4ccccc4)cnc3n2)c1)N1CCCC1	> 30.2 µM
COC[C@H](NC(=O)c1cnc(C)s1)C(=O)N[C@@H](COC)C(=O)N[C@@H](Cc1ccccc1)C(=O)[C@@]1(C)CO1	> 30.2 µM

Now consider a different molecule.
Data request, read-out IC50, for CC(C)C[C@@H](C=O)NC(=O)[C@H](CC(C)C)NC(=O)[C@H](CC(C)C)NC(=O)OCc1ccccc1 [MG132, reference compound] (Cbz-Leu-Leu-Leu-aldehyde) 8.91 µM

---

- measured-on: recombinant β4^R mutant T. cruzi proteasome (chymotrypsin-like activity) (Trypanosoma cruzi, UniProt V5BU39+V5C017, F24L/I29M)
- assay-explanation: biochemical
Residues, ends and D or L forms follow the SMILES beside them. *: point of attachment. Cbz = O=C(OCc1ccccc1)*
measurement-name: IC50 (nM)
Report only the number, with the unit nM understood.

compound	IC50, nM
O=C(Nc1ccc(F)c(-c2cn3nc(-c4ccccc4)cnc3n2)c1)N1CCCC1	2000

# IC50 lookup, item O=C(Nc1ccc(F)c(-c2cn3nc(N4CCOCC4)cnc3n2)c1)N1CCCC1 6920

Can you look up the measured IC50 of CC(C)C[C@@H](C=O)NC(=O)[C@H](CC(C)C)NC(=O)[C@H](CC(C)C)NC(=O)OCc1ccccc1 [MG132, reference compound] (Cbz-Leu-Leu-Leu-aldehyde) for me? 60.3

Param item = CC(C)C[C@H](NC(=O)CNC(=O)c1cc(Cl)ccc1Cl)B(O)O [Ixazomib, reference compound] ; retrieve measured IC50. 13.2

---

- measured-on: native T. cruzi proteasome (chymotrypsin-like activity, β5) (Trypanosoma cruzi, UniProt V5BU39+V5C017)
- assay-explanation: Chymotrypsin-like activity assay (Proteasome-Glo), native T. cruzi proteasome
Residues, ends and D or L forms follow the SMILES beside them. *: point of attachment. Cbz = O=C(OCc1ccccc1)*
measurement-name: pIC50
Units for pIC50: none; it is -log10 of a concentration expressed in mol/L.

Known pIC50 results, listed for orientation:
molecule	result
CC(C)C[C@@H](C=O)NC(=O)[C@H](CC(C)C)NC(=O)[C@H](CC(C)C)NC(=O)OCc1ccccc1 [MG132, reference compound] (Cbz-Leu-Leu-Leu-aldehyde)	6.92
CC(C)C[C@H](NC(=O)CNC(=O)c1cc(Cl)ccc1Cl)B(O)O [Ixazomib, reference compound]	7.45

We now examine a further molecule.
Reported pIC50 for O=C(Nc1ccc(F)c(C(=O)NC2CC2)c1)c1ccc(COc2ccccc2)o1 [DDD02091966] : what is it? 7.42

---

- measured-on: recombinant WT T. cruzi proteasome (chymotrypsin-like activity, β5) (Trypanosoma cruzi, UniProt V5BU39+V5C017)
- assay-explanation: biochemical
- Format: biochemical
- condition: mean ± SD, N = 3 (N = 2 for DDD02091966); (a) mid-point plateau from biphasic curve fits
Residues, ends and D or L forms follow the SMILES beside them. *: point of attachment. Cbz = O=C(OCc1ccccc1)*
molecules and their reported maximum % inhibition plateau, Chymotrypsin Assay, Wild-type

molecule	result
O=C(Nc1ccc(F)c(-c2cn3nc(N4CCOCC4)cnc3n2)c1)N1CCCC1 [DDD01012247]	68.9 ± 3.5%
CC(C)C[C@@H](C=O)NC(=O)[C@H](CC(C)C)NC(=O)[C@H](CC(C)C)NC(=O)OCc1ccccc1 [MG132, reference compound] (Cbz-Leu-Leu-Leu-aldehyde)	66.1 ± 6.6^ a %

Please look up its maximum % inhibition plateau, Chymotrypsin Assay, Wild-type: CC(C)C[C@H](NC(=O)CNC(=O)c1cc(Cl)ccc1Cl)B(O)O [Ixazomib, reference compound] 52.7 ± 21.9^ a %
